Assay: self-splicing fitness, log relative to wild type (ln ratio); higher = more splicing; Tetrahymena group I intron in knt gene, E. coli kanamycin selection, DiMSum; sequences stand for … in CUCUCU…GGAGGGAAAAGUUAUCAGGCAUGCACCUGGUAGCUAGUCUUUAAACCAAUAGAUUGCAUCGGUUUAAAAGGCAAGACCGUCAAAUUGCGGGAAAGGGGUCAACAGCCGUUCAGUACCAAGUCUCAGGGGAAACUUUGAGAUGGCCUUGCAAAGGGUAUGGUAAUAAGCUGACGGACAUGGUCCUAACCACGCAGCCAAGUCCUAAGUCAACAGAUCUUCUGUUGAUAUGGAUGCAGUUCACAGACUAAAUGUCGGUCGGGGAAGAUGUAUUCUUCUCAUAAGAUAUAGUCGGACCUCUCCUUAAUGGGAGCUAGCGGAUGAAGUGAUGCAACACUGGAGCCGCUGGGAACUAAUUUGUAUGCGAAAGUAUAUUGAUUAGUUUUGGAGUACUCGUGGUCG;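 also: selection with 25 µg/mL kanamycin versus none on LB agar overnight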
Conditions: 37 °C
recorded endpoint: self-splicing fitness (ln)
Give bare numbers.

{"columns": ["record sequence", "recorded endpoint", "reading"],
 "data": [
  ["AUGUAGCAAUAUUACGGUAU", "self-splicing fitness (ln)", -0.0188],
  ["ACUAAGCAAUAUUACGUCAC", "self-splicing fitness (ln)", -2.91],
  ["GCGAAGCAAUAUUACGUUAC", "self-splicing fitness (ln)", -2.72],
  ["GCUUAGCAAUAUUACGCGGC", "self-splicing fitness (ln)", -2.19]
]}

Quick one: give me self-splicing fitness (ln) for each item below, same order please.
1. GUACAGCAAUAUUACGUCUU
2. ACACAGCAAUAUUACGAGAU
3. UUCGAGCAAUAUUACGUGAU
4. GGGUAGCAAUAUUACGGGUC

Result ::
0.628
-0.784
-1.35
-1.1

Required: self-splicing fitness (ln), one value per sequence below.
1. ACACAGCAAUAUUACGGGUU
2. UCGCAGCAAUAUUACGGUCG
3. GUUUAGCAAUAUUACGUUCA
4. GAUCAGCAAUAUUACGAUAU
5. AGUAAGCAAUAUUACGAUAG
6. CCAAAGCAAUAUUACGCGAC
7. UCGGAGCAAUAUUACGAUAG
8. AACUAGCAAUAUUACGAGUG

Result ::
1. -1.85
2. 0.0192
3. -0.156
4. 0.658
5. -2.86
6. -2.87
7. -2.83
8. -0.29

I'm hoping you can list self-splicing fitness (ln) for every sequence here, please.
1. AUAAAGCAAUAUUACGUUAU
2. GGGAAGCAAUAUUACGUACG
3. AAAAAGCAAUAUUACGACGC
4. CACAAGCAAUAUUACGGAGU
5. CGCCAGCAAUAUUACGGUGA
6. CCUGAGCAAUAUUACGGCAG
7. GCAGAGCAAUAUUACGUUAA
8. UUACAGCAAUAUUACGAUAG

Result ::
1. -0.4
2. -0.441
3. -0.264
4. -2.64
5. -1.84
6. -0.802
7. -2.64
8. 0.204

Batch: self-splicing fitness (ln) for all items listed.
1. CCACAGCAAUAUUACGACGA
2. CAGAAGCAAUAUUACGCUCG
3. CUGCAGCAAUAUUACGAUUG

Result ::
-2.09
-0.994
-0.488

---

I'd be grateful if you could share measured self-splicing fitness (ln) for these entries.
Test: self-splicing fitness, log relative to wild type (ln ratio); higher = more splicing; Tetrahymena group I intron in knt gene, E. coli kanamycin selection, DiMSum; sequences stand for … in CUCUCU…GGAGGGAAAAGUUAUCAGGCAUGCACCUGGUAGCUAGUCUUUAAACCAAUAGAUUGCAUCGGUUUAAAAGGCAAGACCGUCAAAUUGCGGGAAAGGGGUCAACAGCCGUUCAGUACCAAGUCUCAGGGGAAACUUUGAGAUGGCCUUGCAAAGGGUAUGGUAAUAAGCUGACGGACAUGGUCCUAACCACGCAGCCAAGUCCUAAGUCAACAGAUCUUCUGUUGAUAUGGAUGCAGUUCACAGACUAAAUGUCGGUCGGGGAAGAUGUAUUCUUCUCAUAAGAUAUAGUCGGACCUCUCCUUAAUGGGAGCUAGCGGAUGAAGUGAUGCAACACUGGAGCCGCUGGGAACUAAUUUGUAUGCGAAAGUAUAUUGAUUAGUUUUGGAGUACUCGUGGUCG
Settings: 37 °C
Answers are plain numbers.

Consider the following illustrative entries.
{"columns": ["record sequence", "self-splicing fitness (ln)"],
 "data": [
  ["UACAAGCAAUAUUACGCAAC", -2.36],
  ["CCUAAGCAAUAUUACGUAUA", -2.67]
]}

Give measured self-splicing fitness (ln) for every item shown.
1. CGAGAGCAAUAUUACGCGUG
2. UCUAAGCAAUAUUACGAUCU
3. UAUUAGCAAUAUUACGCGAA
4. GAUGAGCAAUAUUACGAUCA
5. GCAGAGCAAUAUUACGAAAC
6. GUCAAGCAAUAUUACGUAAG

Result ::
1. -2.95
2. -2.08
3. -0.951
4. -1.31
5. -2.23
6. -1.57

Provide reported self-splicing fitness (ln) for each item, in the same order as listed.
1. GAACAGCAAUAUUACGUCGU
2. CCGUAGCAAUAUUACGCCAC
3. CCCUAGCAAUAUUACGAAGC
4. CCUCAGCAAUAUUACGUGAA
5. AGAGAGCAAUAUUACGCCAG
6. GUGUAGCAAUAUUACGCUAU

Result ::
1: -0.479; 2: -1.78; 3: -2.92; 4: -2.22; 5: -2.94; 6: -1.15

---

Test: self-splicing fitness, log relative to wild type (ln ratio); higher = more splicing; Tetrahymena group I intron in knt gene, E. coli kanamycin selection, DiMSum; sequences stand for … in CUCUCU…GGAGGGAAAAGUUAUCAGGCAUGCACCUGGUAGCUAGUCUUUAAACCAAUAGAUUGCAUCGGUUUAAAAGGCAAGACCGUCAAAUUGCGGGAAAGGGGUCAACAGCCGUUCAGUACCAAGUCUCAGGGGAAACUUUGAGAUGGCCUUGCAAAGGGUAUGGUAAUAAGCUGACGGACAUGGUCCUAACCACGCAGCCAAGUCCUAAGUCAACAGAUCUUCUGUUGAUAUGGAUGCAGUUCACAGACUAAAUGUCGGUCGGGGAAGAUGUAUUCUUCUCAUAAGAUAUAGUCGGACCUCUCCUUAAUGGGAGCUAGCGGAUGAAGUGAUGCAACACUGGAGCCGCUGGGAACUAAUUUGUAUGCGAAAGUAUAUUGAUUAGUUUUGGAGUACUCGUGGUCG
Settings: 37 °C
Tick Met if self-splicing fitness (ln) is -0.9 or greater. Tick Not met if self-splicing fitness (ln) is less than -0.9.

Query :: hey, is self-splicing fitness (ln) for this one >= -0.9? "CAUAAGCAAUAUUACGCAGA"
Result :: Not met

---

Test: self-splicing fitness, log relative to wild type (ln ratio); higher = more splicing; Tetrahymena group I intron in knt gene, E. coli kanamycin selection, DiMSum; sequences stand for … in CUCUCU…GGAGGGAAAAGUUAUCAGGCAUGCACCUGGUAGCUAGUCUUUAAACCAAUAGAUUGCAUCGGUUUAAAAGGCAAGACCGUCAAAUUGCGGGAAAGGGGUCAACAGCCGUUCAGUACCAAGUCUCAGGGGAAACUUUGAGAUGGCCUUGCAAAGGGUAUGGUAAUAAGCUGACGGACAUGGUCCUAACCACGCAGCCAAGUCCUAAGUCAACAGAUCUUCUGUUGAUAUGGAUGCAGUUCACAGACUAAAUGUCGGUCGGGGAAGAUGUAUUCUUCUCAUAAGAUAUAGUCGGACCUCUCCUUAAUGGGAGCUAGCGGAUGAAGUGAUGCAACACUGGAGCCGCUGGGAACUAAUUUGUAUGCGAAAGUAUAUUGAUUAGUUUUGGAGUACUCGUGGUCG
Conditions: 37 °C
Kindly supply the reported self-splicing fitness (ln) values for the records listed here.
Give bare numbers.

Some sequences with recorded self-splicing fitness (ln):
{"columns": ["record sequence", "reading"],
 "data": [
  ["GACGAGCAAUAUUACGUCGG", -1.96],
  ["UAUUAGCAAUAUUACGGCAG", -0.424],
  ["UAGCAGCAAUAUUACGCAUU", -1.08]
]}

self-splicing fitness (ln) measured on "GAUCAGCAAUAUUACGACUG" = -0.166

---

Experiment: self-splicing fitness, log relative to wild type (ln ratio); higher = more splicing; Tetrahymena group I intron in knt gene, E. coli kanamycin selection, DiMSum; sequences stand for … in CUCUCU…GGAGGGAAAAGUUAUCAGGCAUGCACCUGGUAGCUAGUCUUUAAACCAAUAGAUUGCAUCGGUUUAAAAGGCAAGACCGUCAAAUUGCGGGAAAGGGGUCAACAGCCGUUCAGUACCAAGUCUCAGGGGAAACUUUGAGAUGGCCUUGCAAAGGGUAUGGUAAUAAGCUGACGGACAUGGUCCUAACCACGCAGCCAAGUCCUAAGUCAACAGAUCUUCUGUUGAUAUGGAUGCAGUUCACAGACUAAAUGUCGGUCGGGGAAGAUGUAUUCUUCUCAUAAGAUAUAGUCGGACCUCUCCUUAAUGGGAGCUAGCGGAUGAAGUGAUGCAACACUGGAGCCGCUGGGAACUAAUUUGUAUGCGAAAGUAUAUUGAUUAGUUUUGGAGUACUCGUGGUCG
Conditions: 37 °C
For each entry below, report its self-splicing fitness (ln) value.
Numbers only.

Hey, quick one: what's self-splicing fitness (ln) for each of these?
1. CCUAAGCAAUAUUACGGUUC
2. UCCCAGCAAUAUUACGUGAC
3. AGGGAGCAAUAUUACGGGAG
4. CAGCAGCAAUAUUACGAUAC
5. ACAGAGCAAUAUUACGUAUG

Result ::
1: -2.59; 2: -3.06; 3: -2.13; 4: -3.45; 5: -3.39

For every record below, what is its self-splicing fitness (ln)?
1. AGCCAGCAAUAUUACGCAAA
2. GCGUAGCAAUAUUACGCCAU

Result ::
-2.36
-2.93

// for each sequence below, give its self-splicing fitness (ln)
1. GAGGAGCAAUAUUACGCCGG
2. AAGCAGCAAUAUUACGCUAU
3. UCACAGCAAUAUUACGCCUA
4. CUCUAGCAAUAUUACGAGCG
5. CCCCAGCAAUAUUACGAUCG
6. CGCUAGCAAUAUUACGUUUG
7. GUUGAGCAAUAUUACGAUGG

Result ::
1: -2.68; 2: -0.814; 3: -0.577; 4: -2.73; 5: -0.917; 6: -0.505; 7: -2.7

Batch: self-splicing fitness (ln) for all items listed.
1. CCCCAGCAAUAUUACGGUCC
2. GCUAAGCAAUAUUACGAACU
3. UUGGAGCAAUAUUACGUUGU

Result ::
1: -2.9; 2: 0.203; 3: -1.77
